FYI, the data here is from ChEMBL document CHEMBL4699489.

target: Neurotensin receptor type 1 (Homo sapiens); test: Agonist activity at human NTS1 expressed in HEK293 cells co-expressing Galphaq/RlucII/GFP10-Ggamma1/Gbeta1 assessed as increase in Gq activation incubated for 10 mins in presence of coelenterazine 400A by BRET assay relative to NT (8-13); type: cell-based
Sequence (P30989 whole entry): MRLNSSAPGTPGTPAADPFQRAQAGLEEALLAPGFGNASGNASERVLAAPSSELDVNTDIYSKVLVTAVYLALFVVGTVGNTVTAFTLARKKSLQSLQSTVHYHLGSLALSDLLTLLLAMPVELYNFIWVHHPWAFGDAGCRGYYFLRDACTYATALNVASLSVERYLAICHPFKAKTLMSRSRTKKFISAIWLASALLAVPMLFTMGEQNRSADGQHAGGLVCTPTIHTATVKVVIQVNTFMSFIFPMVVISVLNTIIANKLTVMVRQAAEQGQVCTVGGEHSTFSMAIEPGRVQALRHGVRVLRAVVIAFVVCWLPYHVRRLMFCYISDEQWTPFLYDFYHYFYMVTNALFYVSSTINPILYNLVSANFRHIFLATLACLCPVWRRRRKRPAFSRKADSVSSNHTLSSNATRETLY
Numbered stars: 1 amine (or outer) side, 2 acyl side, 3 side chain; on linkers, the order of the positions; unused ones are H or OH. Square brackets hold non-standard residues; d marks the D form. Peptide text beside a SMILES is read from it. X1 = O=C1[C@@H](N[*:1])Cc2ccccc2CN1CCC(=O)[*:2]; X2 = O=C([C@@H]1Cc2cc(O)ccc2CN1[*:1])[*:2]; Dmt = Cc1cc(O)cc(C)c1C[C@H](N)C(=O)O; mTyr = N[C@@H](Cc1cccc(O)c1)C(=O)O; β3hR = N=C(N)NCCC[C@H](N)CC(=O)O; Tle = CC(C)(C)[C@H](N)C(=O)O
Attribute: Emax
Report only the number, with the unit % understood.

compound: Cc1cc(O)cc(C)c1C[C@H](N)C(=O)N[C@H](CCCNC(=N)N)C(=O)N[C@H]1Cc2ccccc2CN(CCC(=O)N[C@@H](CCCNC(=N)N)C(=O)N[C@@H](CCCNC(=N)N)C(=O)N2CCC[C@H]2C(=O)N[C@@H](Cc2ccc(O)cc2)C(=O)N[C@H](C(=O)N[C@@H](CC(C)C)C(=O)O)C(C)(C)C)C1=O (H-[Dmt][dR][X1]RRPY[Tle]L-OH)
readout_units: %
Emax: 111
--
compound: Cc1cc(O)cc(C)c1C[C@H](NC(=O)[C@@H]1CCCN1C(=O)[C@H](CCCNC(=N)N)NC(=O)[C@H](CCCNC(=N)N)NC(=O)CCN1Cc2ccccc2C[C@H](NC(=O)[C@@H](CCCNC(=N)N)NC(=O)[C@@H](N)Cc2c(C)cc(O)cc2C)C1=O)C(=O)N[C@H](C(=O)N[C@@H](CC(C)C)C(=O)O)C(C)(C)C (H-[Dmt][dR][X1]RRP[Dmt][Tle]L-OH)
readout_units: %
Emax: 101
--
compound: Cc1cc(O)cc(C)c1C[C@H](N)C(=O)N[C@H](CCCNC(=N)N)C(=O)N[C@H]1Cc2ccccc2CN(CCC(=O)N[C@@H](CCCNC(=N)N)C(=O)N[C@@H](CCCNC(=N)N)C(=O)N2CCC[C@H]2C(=O)N2Cc3ccc(O)cc3C[C@H]2C(=O)N[C@H](C(=O)N[C@@H](CC(C)C)C(=O)O)C(C)(C)C)C1=O (H-[Dmt][dR][X1]RRP[X2][Tle]L-OH)
readout_units: %
Emax: 74
--
compound: Cc1cc(O)cc(C)c1C[C@H](NC(=O)[C@@H]1CCCN1C(=O)[C@H](CCCNC(=N)N)NC(=O)C[C@H](CCCNC(=N)N)NC(=O)CCN1Cc2ccccc2C[C@H](NC(=O)[C@@H](CCCNC(=N)N)NC(=O)[C@@H](N)Cc2c(C)cc(O)cc2C)C1=O)C(=O)N[C@H](C(=O)N[C@@H](CC(C)C)C(=O)O)C(C)(C)C (H-[Dmt][dR][X1][β3hR]RP[Dmt][Tle]L-OH)
readout_units: %
Emax: 114

Task: Report measured Emax on Neurotensin receptor type 1 (Homo sapiens); entry: Cc1cc(O)cc(C)c1C[C@H](N)C(=O)N[C@H](CCCNC(=N)N)C(=O)N[C@H]1Cc2ccccc2CN(CCC(=O)N[C@@H](CCCNC(=N)N)C(=O)N[C@@H](CCCNC(=N)N)C(=O)N2CCC[C@H]2C(=O)N[C@@H](Cc2cccc(O)c2)C(=O)N[C@H](C(=O)N[C@@H](CC(C)C)C(=O)O)C(C)(C)C)C1=O (H-[Dmt][dR][X1]RRP[mTyr][Tle]L-OH)
Result: 95

Task: Report measured Emax on Neurotensin receptor type 1 (Homo sapiens); entry: Cc1cc(O)cc(C)c1C[C@H](N)C(=O)N[C@H](CCCCN)C(=O)N[C@@H](Cc1ccccc1)C(=O)N[C@@H](Cc1ccccc1)C(=O)N[C@@H](CCCCN)C(=O)N[C@@H](CCCCN)C(=O)N1CCC[C@H]1C(=O)N[C@@H](Cc1ccccc1)C(=O)N[C@H](C(=O)N[C@@H](CC(C)C)C(=O)O)C(C)(C)C (H-[Dmt][dK]FFKKPF[Tle]L-OH)
Result: 101

----------
target: Kappa-type opioid receptor (Homo sapiens, UniProt P41145); experiment: Agonist activity at human KOR stably expressed in CHO cell membranes assessed as stimulation of [35S]-GTPgammaS binding incubated for 1 hr by liquid scintillation counting assay relative to U69593; type: functional; details: time 60.0 min
Sequence (P41145 whole entry): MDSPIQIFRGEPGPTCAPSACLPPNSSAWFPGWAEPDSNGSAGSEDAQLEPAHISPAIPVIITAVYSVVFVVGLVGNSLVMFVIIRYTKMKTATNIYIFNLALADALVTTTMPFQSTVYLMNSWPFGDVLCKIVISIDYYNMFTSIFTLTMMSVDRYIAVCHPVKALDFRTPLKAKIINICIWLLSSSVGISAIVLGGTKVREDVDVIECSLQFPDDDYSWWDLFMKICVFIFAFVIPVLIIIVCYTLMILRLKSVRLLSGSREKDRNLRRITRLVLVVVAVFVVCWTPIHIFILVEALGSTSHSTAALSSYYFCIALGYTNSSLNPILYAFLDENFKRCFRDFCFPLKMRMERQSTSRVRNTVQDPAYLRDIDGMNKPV
Numbered stars: 1 amine (or outer) side, 2 acyl side, 3 side chain; on linkers, the order of the positions; unused ones are H or OH. Square brackets hold non-standard residues; d marks the D form. Peptide text beside a SMILES is read from it. X1 = O=C1[C@@H](N[*:1])Cc2ccccc2CN1CCC(=O)[*:2]; Dmt = Cc1cc(O)cc(C)c1C[C@H](N)C(=O)O; mTyr = N[C@@H](Cc1cccc(O)c1)C(=O)O; Tle = CC(C)(C)[C@H](N)C(=O)O; β3hK = NCCCC[C@H](N)CC(=O)O
readout: Emax (%)
Report only the number, with the unit % understood.

compound: Cc1cc(O)cc(C)c1C[C@H](N)C(=O)N[C@H](CCCNC(=N)N)C(=O)N[C@H]1Cc2ccccc2CN(CCC(=O)N[C@@H](CCCNC(=N)N)C(=O)N[C@@H](CCCNC(=N)N)C(=O)N2CCC[C@H]2C(=O)N[C@@H](Cc2cccc(O)c2)C(=O)N[C@H](C(=O)N[C@@H](CC(C)C)C(=O)O)C(C)(C)C)C1=O (H-[Dmt][dR][X1]RRP[mTyr][Tle]L-OH)
Emax, %: 28

Now for a further compound.
Task: Give the measured Emax for Cc1cc(O)cc(C)c1C[C@H](NC(=O)[C@@H]1CCCN1C(=O)[C@H](CCCCN)NC(=O)C[C@H](CCCCN)NC(=O)CCN1Cc2ccccc2C[C@H](NC(=O)[C@@H](CCCNC(=N)N)NC(=O)[C@@H](N)Cc2c(C)cc(O)cc2C)C1=O)C(=O)N[C@H](C(=O)N[C@@H](CC(C)C)C(=O)O)C(C)(C)C (H-[Dmt][dR][X1][β3hK]KP[Dmt][Tle]L-OH)
Result: 36

----------
target: Kappa-type opioid receptor (Homo sapiens, UniProt P41145); assay: Displacement of [3H]-U69593 from recombinant human kappa opioid receptor expressed in CHO cell membrane incubated for 60 mins by liquid scintillation counting method
Numbered stars: 1 amine (or outer) side, 2 acyl side, 3 side chain; on linkers, the order of the positions; unused ones are H or OH. Square brackets hold non-standard residues; d marks the D form. Peptide text beside a SMILES is read from it. X1 = O=C1[C@@H](N[*:1])Cc2ccccc2CN1CCC(=O)[*:2]; X2 = O=C([C@@H]1Cc2cc(O)ccc2CN1[*:1])[*:2]; Dmt = Cc1cc(O)cc(C)c1C[C@H](N)C(=O)O; mTyr = N[C@@H](Cc1cccc(O)c1)C(=O)O; Tle = CC(C)(C)[C@H](N)C(=O)O
Attribute: pKi
// returns pKi (minus log10 of molar concentration), number only

Illustrative cases are given below, each with its answer.
compound: Cc1cc(O)cc(C)c1C[C@H](N)C(=O)N[C@H](CCCNC(=N)N)C(=O)N[C@H]1Cc2ccccc2CN(CCC(N)=O)C1=O
tested_on: Kappa-type opioid receptor (Homo sapiens, UniProt P41145)
measurement: 7.78

compound: Cc1cc(O)cc(C)c1C[C@H](N)C(=O)N[C@H](CCCNC(=N)N)C(=O)N[C@H]1Cc2ccccc2CN(CCC(=O)N[C@@H](CCCNC(=N)N)C(=O)N[C@@H](CCCNC(=N)N)C(=O)N2CCC[C@H]2C(=O)N[C@@H](Cc2cccc(O)c2)C(=O)N[C@H](C(=O)N[C@@H](CC(C)C)C(=O)O)C(C)(C)C)C1=O (H-[Dmt][dR][X1]RRP[mTyr][Tle]L-OH)
tested_on: Kappa-type opioid receptor (Homo sapiens, UniProt P41145)
measurement: 7.70

compound: Cc1cc(O)cc(C)c1C[C@H](N)C(=O)N[C@H](CCCNC(=N)N)C(=O)N[C@H]1Cc2ccccc2CN(CCC(=O)N[C@@H](CCCCN)C(=O)N[C@@H](CCCCN)C(=O)N2CCC[C@H]2C(=O)N2Cc3ccc(O)cc3C[C@H]2C(=O)N[C@H](C(=O)N[C@@H](CC(C)C)C(=O)O)C(C)(C)C)C1=O (H-[Dmt][dR][X1]KKP[X2][Tle]L-OH)
tested_on: Kappa-type opioid receptor (Homo sapiens, UniProt P41145)
measurement: 6.82

Task: Give the measured pKi for Cc1cc(O)cc(C)c1C[C@H](NC(=O)[C@@H]1CCCN1C(=O)[C@H](CCCCN)NC(=O)[C@H](CCCCN)NC(=O)CCN1Cc2ccccc2C[C@H](NC(=O)[C@@H](CCCNC(=N)N)NC(=O)[C@@H](N)Cc2c(C)cc(O)cc2C)C1=O)C(=O)N[C@H](C(=O)N[C@@H](CC(C)C)C(=O)O)C(C)(C)C (H-[Dmt][dR][X1]KKP[Dmt][Tle]L-OH)
Result: 6.86
